system: Mycolicibacterium vaccae; assay: Antimycobacterial activity against Mycobacterium vaccae assessed as diameter of inhibition zone at 50 ug/disc; format: functional; settings: read-out: IZ
The molecules listed here are annotated with their zone of inhibition at 50 µg/disc.

| SMILES_ENTRY | zone of inhibition at 50 µg/disc / mm |
| --- | --- |
| CC[C@H]1/C=C/[C@@H]([C@@H](O)C=C(C)C)OC(=O)/C(C)=C\[C@@H]2C(=O)NC3=CC(=O)c4c(cc(C)c(O)c4C(=O)CC1)[C@@]32O | 12 |
| CC[C@H]1/C=C/[C@H](O)[C@H](C=C(C)C)OC(=O)[C@@]2(C)C=CC(=O)Nc3c2c(O)c2c(c(O)c(C)cc2c3O)C(=O)CC1 | 11 |
| CC[C@H]1/C=C/[C@@H]([C@@H](O)C=C(C)C)OC(=O)/C(C)=C\CC(=O)Nc2cc(O)cc3c2O[C@@]2(CC1)CC(=O)[C@@H](C)[C@@H]3O2 | 19 |
| CC[C@H]1/C=C/[C@H](O)[C@H](C=C(C)C)OC(=O)/C(C)=C/CC(=O)Nc2cc(O)cc3c2O/C(=C\C(=O)CC1)C(C)=C3 | 12 |

Reference source: ChEMBL document CHEMBL4400517
